target: Torsin-1A (Homo sapiens); assay: torsin A binders from cell lysate, primary screen, small-molecule microarray, wild-type, 635/667 nm (AID 1149); details: COS7 hTOR1A-WT lysate, 635 nm fluorescence, higher = more signal
Answer label 0 if composite z-score is under 0.01, and label 1 if it is 0.01 or more.

molecule	target-desc	label-class
CCOC(=O)C[C@H]1[C@H](OC(=O)c2ccc(-c3ccccc3)cc2)[C@@H](NC(=O)c2ccc3ccccc3c2)c2cc(OCCCO)ccc2N1C(=O)c1ccccc1	Torsin-1A (Homo sapiens)	label 1
CCc1cccc(NC(=O)O[C@H]2[C@H](OC(=O)Nc3ccc4c(c3)OCO4)[C@H](OC(=O)Nc3ccc4c(c3)OCO4)[C@@H](OC)O[C@@H]2CO)c1	Torsin-1A (Homo sapiens)	label 1
N#Cc1ccc(C(O)C2C=CC3C(=O)NC(=O)C3N2Nc2ccccn2)cc1 (centres undefined)	Torsin-1A (Homo sapiens)	label 1
CC(C)CNC(=O)[C@@H]1c2ccccc2C(=O)N(C2Cc3ccccc3C2)[C@H]1c1ccc(CO)cc1	Torsin-1A (Homo sapiens)	label 0
C=CCC(OC(C)=O)[C@@H]1[C@@H](N(Cc2ccc(-c3ccccc3)cc2)C(=O)c2ccc(C)cc2)c2cc(OCCCO)ccc2N1C(=O)c1ccc2ccccc2c1 (some centres undefined)	Torsin-1A (Homo sapiens)	label 1
COCCOC(=O)N1C(=O)[C@@]2(c3cc(C#Cc4ccc(OC)cc4)ccc31)[C@H](C(=O)N1CCCCCCC1)[C@H]1C(=O)O[C@H](c3ccccc3)[C@H](c3ccccc3)N1[C@@H]2c1ccccc1OCCO	Torsin-1A (Homo sapiens)	label 1
COc1ccc([Si](C)(C)[C@@H]2[C@@H](CCO)O[C@]3(C(=O)N(Cc4ccccc4)c4ccc(N5C(=O)c6ccccc6Oc6ccccc65)cc43)[C@H]2C)cc1	Torsin-1A (Homo sapiens)	label 0
O=C1O[C@@H](c2ccccc2)[C@@H](c2ccccc2)N2[C@@H](c3ccc(O)cc3)[C@]3(C(=O)Nc4ccc(C#CC5=CCCCC5)cc43)[C@@H](C(=O)N3CCCCCCC3)[C@H]12	Torsin-1A (Homo sapiens)	label 1
CCC(CC)C(O)C1C=CC2C(=O)N(C)C(=O)C2N1N1CCCCC1 (centres undefined)	Torsin-1A (Homo sapiens)	label 1
CN1C(=O)[C@]2(CCS(=O)(=O)c3ccccc3)N=C(c3ccc(OCCCO)cc3)O[C@@H]2c2ccccc21	Torsin-1A (Homo sapiens)	label 1
CC1CC/C=C\[C@H]2OC34C=CCN(c5ccc(Cl)cc5)C(=O)[C@H]3N(CCCO)C(=O)[C@]4(C)C2C(=O)O1 (some centres undefined)	Torsin-1A (Homo sapiens)	label 0
CCOC(=O)C[C@H]1[C@H](OC(=O)c2ccc(-c3ccccc3)cc2)[C@@H](NC(=O)CC(C)C)c2cc(OCCCO)ccc2N1C(=O)Cc1ccc(OC)cc1	Torsin-1A (Homo sapiens)	label 0
CC=CC(O)C1C=CC2C(=O)N(C)C(=O)C2N1NC(=O)OC(C)(C)C (centres undefined)	Torsin-1A (Homo sapiens)	label 1
CCCCCCc1nc(-c2ccc(OC)nc2)cc2c1[Si](C(C)C)(C(C)C)OC2	Torsin-1A (Homo sapiens)	label 0

====

target: Fibroblast growth factor 10 (Homo sapiens) (UniProt O15520); assay: FGF10 binders on small-molecule microarrays, primary screen, biochemical, small-molecule microarray, 635 nm fluorescence (AID 1102); conditions: FGF10 binding, fluorescence 635 nm, higher = more signal
Sequence (O15520 whole entry, looked up): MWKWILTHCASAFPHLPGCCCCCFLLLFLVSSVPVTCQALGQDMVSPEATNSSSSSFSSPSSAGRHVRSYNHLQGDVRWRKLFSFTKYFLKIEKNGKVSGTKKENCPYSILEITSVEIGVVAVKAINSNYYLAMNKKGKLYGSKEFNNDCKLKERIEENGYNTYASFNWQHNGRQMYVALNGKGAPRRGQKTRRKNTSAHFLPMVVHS
Listing: composite z-score of selected compounds
reported-property: composite z-score

compound	reported-property	observed
C=CC[C@]1(C(=O)NCCCOC)N=C(c2ccc(OCCCO)cc2)O[C@H]1c1ccccc1	composite z-score	-0.418
COc1cc2c(cc1O)C(c1ccc(CN3CCCC3)cc1)N(Cc1cccc(OC(F)(F)F)c1)CC2 (stereo not drawn)	composite z-score	0.15
COc1ccc(CCNC(=O)[C@@]2(Sc3ccc(C)cc3)CC(=O)N(Cc3cc(C(F)(F)F)cc(C(F)(F)F)c3)[C@@H]2c2ccc(CO)cc2)cc1	composite z-score	-1.59
CC(C)[Si](C#CCCCC#N)(O[C@H](c1ccccc1)c1cn([C@H](C)c2ccccc2)nn1)C(C)C	composite z-score	0.524
COc1cc2c(cc1O)C(c1ccc(CN3CCCC3)cc1)N(Cc1ccc([N+](=O)[O-])o1)CC2 (stereo not drawn)	composite z-score	0.116
CCCCC(O)C1C=CC2C(=O)NC(=O)C2N1Nc1ccccn1 (stereo not drawn)	composite z-score	-0.0249
COc1ccc([Si](C)(C)[C@H]2[C@H](CCO)O[C@@]3(C(=O)N(Cc4ccccc4)c4ccc(N(C=O)c5ccccc5)cc43)[C@@H]2C)cc1	composite z-score	0.651
COCCCNC(=O)[C@@H]1c2ccccc2C(=O)N(Cc2cc(C(F)(F)F)cc(C(F)(F)F)c2)[C@H]1c1ccc(CO)cc1	composite z-score	-0.0413
